- Tested on: Mus musculus
- ASSAY_DETAILS: Effect of on mean survival time upon oral treatment on HSV-2 induced mortality in mice at 10 mg/kg dose
- Type: functional
Recorded measurements of MST, one per entry
Quick reminder: number only, in days, skip the unit.

Consider the worked cases shown below.
>>> df
                                   compound  property_label  assay_value
0  Nc1nc(O)c2ncn(COC(COP(=O)(O)O)COP(=O)(O)O)c2n1             MST         10.8
1          Nc1nc2c(ncn2COC(CO)CO)c(=O)[nH]1             MST         10.9
2  Nc1nc(O)c2ncn(COC(CO)CCP(=O)(O)O)c2n1 (stereo not given)             MST          8.3

Record Nc1nc2c(ncn2COC2COP(=O)(O)OC2)c(=O)[nH]1 (stereo not given) . Reported MST: 10.6

Record Nc1nc(O)c2ncn(COC(CO)COP(=O)(O)O)c2n1 (stereo not given) . Reported MST: 11.3
